In this section, each of the compounds is paired with its reported EC50.
- Test system: MT1-MMP promoter luciferase reporter cells, luminescence
- test-summary: MT1-MMP gene expression reporter suppression – cell-based, luciferase reporter, luminescence (AID 618);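 also: actives suppress MT1-MMP promoter-driven transcription so potencies describe inhibitors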
measured-endpoint: EC50

INSERT INTO assay_data (compound, assay_value) VALUES
  ('COCCn1c(C)cc(C2=NNC(=Nc3ccccc3F)SC2)c1C', '3.04 µM'),
  ('CCc1nnc(NC(=O)c2ccc(OC)cc2OC)s1', '6.08 µM'),
  ('CC(C)C(=O)NC(c1ccco1)c1ccc2cccnc2c1O (configuration not stated)', '27.6 µM'),
  ('CC(C)Nc1ncnc2c1cnn2-c1ccc(Cl)cc1', '3.85 µM'),
  ('CCC/C(O)=C1\C(=O)CC(C)(C)CC1=Nc1ccc(OC)cc1OC', '23.6 µM'),
  ('CCCc1cc(C(=O)Nc2nccs2)cs1', '12.7 µM'),
  ('O=C(Nc1ccc2c(c1)OCCO2)c1cncc(Br)c1', '7.14 µM');

---

- System: MT1-MMP promoter luciferase reporter cells, luminescence
- test-summary: MT1-MMP gene expression reporter suppression – cell-based, luciferase reporter, luminescence (AID 618);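 also: actives suppress MT1-MMP promoter-driven transcription so potencies describe inhibitors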
Activity calls are given as the source filed them. The rule behind the calls is not given here.
Outcomes: active, inactive

INSERT INTO assay_data (molecule, experimental_target, label_class) VALUES
  ('Cc1cc(NC(=O)CSc2nc(-c3ccco3)cc(C(F)(F)F)n2)no1', 'MT1-MMP promoter luciferase reporter cells, luminescence', 'inactive'),
  ('COc1ccc(NC(=O)/C(Cl)=C(/Cl)S(=O)(=O)Cc2ccc(C)cc2)cn1', 'MT1-MMP promoter luciferase reporter cells, luminescence', 'active'),
  ('O=S(=O)(c1ccc(Cl)cc1)c1snnc1-c1ccccc1', 'MT1-MMP promoter luciferase reporter cells, luminescence', 'active'),
  ('Cc1ccc2nc(NC(=O)c3ccco3)sc2c1', 'MT1-MMP promoter luciferase reporter cells, luminescence', 'active'),
  ('CC1=CC(C)(C)Nc2ccc(OC(=O)CN3C(=O)CCC3=O)cc21', 'MT1-MMP promoter luciferase reporter cells, luminescence', 'active'),
  ('CC(C)(C)c1ccc(C(=O)N2CCCCCC2=O)cc1', 'MT1-MMP promoter luciferase reporter cells, luminescence', 'active'),
  ('COc1ccccc1-c1cc(C(F)(F)F)nc(S(=O)(=O)CCCC(=O)N2CCOCC2)n1', 'MT1-MMP promoter luciferase reporter cells, luminescence', 'active'),
  ('O=C(c1cc(-c2cccc(O)c2)on1)N1CCCCC1', 'MT1-MMP promoter luciferase reporter cells, luminescence', 'active'),
  ('Cc1ccc(-c2nc(-c3ccccc3)no2)cc1', 'MT1-MMP promoter luciferase reporter cells, luminescence', 'active'),
  ('Cn1ccnc1SCc1cn2cc(Br)ccc2n1', 'MT1-MMP promoter luciferase reporter cells, luminescence', 'active'),
  ('Clc1ccccc1OCc1nc(-c2ccccn2)no1', 'MT1-MMP promoter luciferase reporter cells, luminescence', 'active'),
  ('COc1ccc(N=CC2=C(O)c3ccccc3C2=O)c(OC)c1', 'MT1-MMP promoter luciferase reporter cells, luminescence', 'active'),
  ('COc1nc(C)ccc1-c1noc(-c2ccco2)n1', 'MT1-MMP promoter luciferase reporter cells, luminescence', 'active'),
  ('O=C(NC1=NCCS1)c1cc2ccccc2o1', 'MT1-MMP promoter luciferase reporter cells, luminescence', 'active'),
  ('Cc1cc(C)c(OCC(=O)Nc2cccc(O)c2)cc1C', 'MT1-MMP promoter luciferase reporter cells, luminescence', 'active'),
  ('Nc1ccc(-c2nc3c(Cl)cc(N)cc3[nH]2)cc1', 'MT1-MMP promoter luciferase reporter cells, luminescence', 'active'),
  ('O=C(Nc1ccc(CN2CCOCC2)cc1)c1cc2ccccn2n1', 'MT1-MMP promoter luciferase reporter cells, luminescence', 'active'),
  ('CC(C)(C)c1ccc(-c2nc(-c3ccncc3)no2)cc1', 'MT1-MMP promoter luciferase reporter cells, luminescence', 'active'),
  ('COc1ccc(-n2ncc3c(NCC(C)C)ncnc32)cc1', 'MT1-MMP promoter luciferase reporter cells, luminescence', 'active'),
  ('Brc1ccc(-c2nc(-c3ccccn3)no2)o1', 'MT1-MMP promoter luciferase reporter cells, luminescence', 'active'),
  ('Cc1ccc(C(=O)Nc2nc3c(s2)CCCC3)o1', 'MT1-MMP promoter luciferase reporter cells, luminescence', 'active'),
  ('O=C(O)CCSc1nnc(-c2ccc3c(c2)OCO3)o1', 'MT1-MMP promoter luciferase reporter cells, luminescence', 'active'),
  ('COc1cc(SC)ccc1C(=O)Nc1ccc2c(c1)OCCO2', 'MT1-MMP promoter luciferase reporter cells, luminescence', 'active'),
  ('Cc1cc(C)c2c(N)c(C(=O)Nc3ncc(C)s3)sc2n1', 'MT1-MMP promoter luciferase reporter cells, luminescence', 'active'),
  ('COCCn1c(C)cc(C(=O)CSc2ccc(NC(C)=O)cc2)c1C', 'MT1-MMP promoter luciferase reporter cells, luminescence', 'active'),
  ('O=C(CSc1nnc(-c2csc3c2CCCC3)o1)Nc1ccccc1', 'MT1-MMP promoter luciferase reporter cells, luminescence', 'active'),
  ('COc1ccc(C2=Nc3ccccc3OC2)cc1', 'MT1-MMP promoter luciferase reporter cells, luminescence', 'active'),
  ('COC(=O)Cc1ccc(NC(=O)c2ccc(C(C)(C)C)cc2)cc1', 'MT1-MMP promoter luciferase reporter cells, luminescence', 'active'),
  ('Cc1cc(C(=O)Nc2cccc(C(=O)O)c2)oc1C', 'MT1-MMP promoter luciferase reporter cells, luminescence', 'active'),
  ('Cc1cc(-c2csc(N)n2)c(C)n1CCc1ccccc1', 'MT1-MMP promoter luciferase reporter cells, luminescence', 'active'),
  ('c1ccc(-c2nc(-c3ccccn3)no2)cc1', 'MT1-MMP promoter luciferase reporter cells, luminescence', 'active'),
  ('Cc1nc2cc(-c3cccc(F)c3)nn2c(C)c1CCC(=O)NC(C)CCc1ccco1 (stereo not given)', 'MT1-MMP promoter luciferase reporter cells, luminescence', 'active'),
  ('CCOC(=O)C1CCCCN1C(=O)CCc1c(C)nc2cc(-c3ccccc3)nn2c1C (stereo not given)', 'MT1-MMP promoter luciferase reporter cells, luminescence', 'active'),
  ('CCCCCc1ccc(-c2ccc(C(=O)O)cc2)nc1', 'MT1-MMP promoter luciferase reporter cells, luminescence', 'active'),
  ('CC(C)C(=O)Nc1ccc(NC(=O)c2ccccn2)cn1', 'MT1-MMP promoter luciferase reporter cells, luminescence', 'active'),
  ('Cc1oncc1C(=O)Nc1ccc(C(F)(F)F)cc1', 'MT1-MMP promoter luciferase reporter cells, luminescence', 'active'),
  ('COc1ccc(NC(=O)c2cc3ccccn3n2)cc1', 'MT1-MMP promoter luciferase reporter cells, luminescence', 'active'),
  ('O=C(CCCOc1ccccc1)N1CCCCC1', 'MT1-MMP promoter luciferase reporter cells, luminescence', 'active'),
  ('Cn1c(-c2ccccc2)cnc1SCC(=O)N1CCCCC1', 'MT1-MMP promoter luciferase reporter cells, luminescence', 'active'),
  ('CCOC(=O)CNC(=O)CSc1ncnc2c1cnn2-c1ccc(C)cc1', 'MT1-MMP promoter luciferase reporter cells, luminescence', 'active'),
  ('O=C(N/N=C/c1ccc([N+](=O)[O-])s1)c1ccccc1Br', 'MT1-MMP promoter luciferase reporter cells, luminescence', 'active'),
  ('CCCCCN=Cc1c(C)[nH]n(-c2nc3ccccc3s2)c1=O', 'MT1-MMP promoter luciferase reporter cells, luminescence', 'active'),
  ('O=c1c(Cl)c(N2CCCCC2)cnn1-c1nc2ccccc2[nH]1', 'MT1-MMP promoter luciferase reporter cells, luminescence', 'active'),
  ('COc1ccc(-c2cc3nnc(-c4ccccc4)nc3s2)cc1', 'MT1-MMP promoter luciferase reporter cells, luminescence', 'active'),
  ('CCOc1ccc(-c2cc(CCCC(=O)Nc3cc(OC)ccc3OC)no2)cc1', 'MT1-MMP promoter luciferase reporter cells, luminescence', 'active');

---

- System: MT1-MMP promoter luciferase reporter cells, luminescence
- test-summary: MT1-MMP gene expression reporter suppression – cell-based, luciferase reporter, luminescence (AID 618);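 also: actives suppress MT1-MMP promoter-driven transcription so potencies describe inhibitors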
Activity calls are given as the source filed them. The rule behind the calls is not given here.
Outcomes: 1.0 = active, 0.0 = inactive

INSERT INTO results (compound, experimental_target, label_class) VALUES
  ('Cc1ccc2nc(-c3cccc(N)c3)oc2c1', 'MT1-MMP promoter luciferase reporter cells, luminescence', 1.0),
  ('Cc1ccc(OCc2nc(-c3ccccn3)no2)c(Br)c1', 'MT1-MMP promoter luciferase reporter cells, luminescence', 1.0),
  ('CCOc1ccc(OCc2ccc(C(=O)O)o2)cc1', 'MT1-MMP promoter luciferase reporter cells, luminescence', 1.0),
  ('c1ccc(OCCSc2nnc3sc4ccccc4n23)cc1', 'MT1-MMP promoter luciferase reporter cells, luminescence', 1.0),
  ('O=C(Nc1nccs1)c1cc2c(s1)CCCCC2', 'MT1-MMP promoter luciferase reporter cells, luminescence', 1.0),
  ('O=C(O)c1cccc(C(=O)Nc2cccc(NC(=O)C3CCCO3)c2)c1 (centres undefined)', 'MT1-MMP promoter luciferase reporter cells, luminescence', 1.0),
  ('CC(C)C(=O)Nc1ccc(-c2nc3cccnc3o2)cc1', 'MT1-MMP promoter luciferase reporter cells, luminescence', 1.0),
  ('COc1cccc(-c2nc(-c3ccccn3)no2)c1', 'MT1-MMP promoter luciferase reporter cells, luminescence', 1.0),
  ('CN(C)CCCNS(=O)(=O)c1ccc(N2CCC(c3ccc(Cl)cc3)=N2)cc1', 'MT1-MMP promoter luciferase reporter cells, luminescence', 1.0),
  ('CN(C)c1ccc(N/C=C/C(=O)c2ccco2)cc1', 'MT1-MMP promoter luciferase reporter cells, luminescence', 1.0),
  ('COc1cccc(C(=O)Nc2nc3ccccc3[nH]2)c1', 'MT1-MMP promoter luciferase reporter cells, luminescence', 1.0),
  ('COc1ccc(C(=O)Nc2ccc3c(c2)OCCO3)cc1', 'MT1-MMP promoter luciferase reporter cells, luminescence', 1.0),
  ('Nc1cccc2nc3ccccc3cc12', 'MT1-MMP promoter luciferase reporter cells, luminescence', 1.0),
  ('COc1ccc(-c2noc(CCCC(=O)O)n2)cc1', 'MT1-MMP promoter luciferase reporter cells, luminescence', 1.0),
  ('CN(C)c1nc(-c2ccccn2)nnc1-c1ccccc1', 'MT1-MMP promoter luciferase reporter cells, luminescence', 0.0),
  ('N#Cc1cc2c(nc1SCC(=O)Nc1nccs1)CCCCC2', 'MT1-MMP promoter luciferase reporter cells, luminescence', 1.0),
  ('Cc1ccc(-c2nc3cc(N)ccc3o2)c(C)c1', 'MT1-MMP promoter luciferase reporter cells, luminescence', 1.0),
  ('Cc1ccsc1/C=C1\CCc2ccccc2C1=O', 'MT1-MMP promoter luciferase reporter cells, luminescence', 1.0),
  ('N#Cc1c(NC(=O)CSc2ncn[nH]2)sc2c1CCCCC2', 'MT1-MMP promoter luciferase reporter cells, luminescence', 1.0);
